test system: P-gp; test: Resistance index, ratio of IC50 for substrate activity at P-gp in human SKVLB1 cells assessed as inhibition of cell growth to IC50 for human SKOV3 cells; type: toxicity, cell-based; details: SKVLB1 cells (P-gp) versus SKOV3 cells, read-out: Ratio IC50

- Entry Smiles: "CC(=O)O[C@H]1C(=O)[C@@]2(C)[C@H]([C@H](OC(=O)c3ccccc3)[C@]3(O)C[C@H](OC(=O)[C@H](O)[C@@H](NC(=O)c4ccccc4)c4ccccc4)C(C)=C1C3(C)C)[C@]1(OC(C)=O)CO[C@@H]1C[C@@H]2O"
  selectivity ratio: 5520

* * *

organism: Bos taurus; test: Inhibition of [3H]2-m-AzTax binding to bovine brain beta-tubulin at 20 uM treated for 30 mins followed by UV irradiation for 10 mins by fluorographic method relative to control
Assay Endpoint: inhibition (%)

- Molecule: "CC(=O)O[C@@]12CO[C@@H]1C[C@H](O)[C@@]1(C)C(=O)[C@H](OC(=O)C3CC3)C3=C(C)[C@@H](OC(=O)[C@H](O)[C@H](C=C(C)C)NC(=O)OC(C)(C)C)C[C@@](O)([C@@H](OC(=O)c4ccccc4)[C@H]21)C3(C)C"
  Measure Unit: "%"
  Numeric Result: 38
- Molecule: "CC(=O)O[C@@]12CO[C@@H]1C[C@H](O)[C@@]1(C)C(=O)[C@H](O)C3=C(C)[C@@H](OC(=O)[C@H](O)[C@@H](NC(=O)OC(C)(C)C)c4ccccc4)C[C@@](O)([C@@H](OC(=O)c4ccccc4)[C@H]21)C3(C)C [DOCETAXEL ANHYDROUS]"
  Measure Unit: "%"
  Numeric Result: 33
- Molecule: "CC(=O)O[C@@]1(C2/C(C)=C(/O)C(=O)C3=C(C)[C@@H](OC(=O)[C@H](O)[C@H](C=C(C)C)NC(=O)OC(C)(C)C)C[C@@](O)([C@H]2OC(=O)c2cccc(Cl)c2)C3(C)C)CO[C@H]1CCO (some centres undefined)"
  Measure Unit: "%"
  Numeric Result: 32
- Molecule: "CC(=O)O[C@H]1C(=O)[C@@]2(C)[C@H]([C@H](OC(=O)c3ccccc3)[C@]3(O)C[C@H](OC(=O)[C@H](O)[C@@H](NC(=O)c4ccccc4)c4ccccc4)C(C)=C1C3(C)C)[C@]1(OC(C)=O)CO[C@@H]1C[C@@H]2O"
  Measure Unit: "%"
  Numeric Result: 9

* * *

Entries and their inhibition
target: Tubulin beta-4 chain (Gallus gallus) (UniProt P09652); assay: Inhibition of [3H]2-m-AzTax binding to chicken erythrocyte beta-tubulin 4 at 20 uM treated for 30 mins followed by UV irradiation for 10 mins by fluorographic method relative to control
Sequence (P09652 whole entry): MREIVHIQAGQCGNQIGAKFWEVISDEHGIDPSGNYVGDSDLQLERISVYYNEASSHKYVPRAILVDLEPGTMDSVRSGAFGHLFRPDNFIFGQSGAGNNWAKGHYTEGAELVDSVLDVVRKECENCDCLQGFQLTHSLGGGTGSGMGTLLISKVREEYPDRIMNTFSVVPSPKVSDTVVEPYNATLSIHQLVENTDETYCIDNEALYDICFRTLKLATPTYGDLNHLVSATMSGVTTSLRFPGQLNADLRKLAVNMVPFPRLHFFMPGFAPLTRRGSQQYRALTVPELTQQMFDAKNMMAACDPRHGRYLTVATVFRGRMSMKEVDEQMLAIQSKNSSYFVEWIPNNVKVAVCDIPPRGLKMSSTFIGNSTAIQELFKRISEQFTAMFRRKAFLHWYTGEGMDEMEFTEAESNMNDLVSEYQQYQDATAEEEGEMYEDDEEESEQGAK
Assay Endpoint: inhibition (%)

- Compound: "CC(=O)O[C@@]1(C2/C(C)=C(/O)C(=O)C3=C(C)[C@@H](OC(=O)[C@H](O)[C@H](C=C(C)C)NC(=O)OC(C)(C)C)C[C@@](O)([C@H]2OC(=O)c2cccc(Cl)c2)C3(C)C)CO[C@H]1CCO (some centres undefined)"
  Target Of Assay: "Tubulin beta-4 chain (Gallus gallus) (UniProt P09652)"
  Assay Endpoint: "inhibition"
  Numeric Result: 6
- Compound: "CC(=O)O[C@@]12CO[C@@H]1C[C@H](O)[C@@]1(C)C(=O)[C@H](OC(=O)C3CC3)C3=C(C)[C@@H](OC(=O)[C@H](O)[C@H](C=C(C)C)NC(=O)OC(C)(C)C)C[C@@](O)([C@@H](OC(=O)c4ccccc4)[C@H]21)C3(C)C"
  Target Of Assay: "Tubulin beta-4 chain (Gallus gallus) (UniProt P09652)"
  Assay Endpoint: "inhibition"
  Numeric Result: 30
- Compound: "CC(=O)O[C@H]1C(=O)[C@@]2(C)[C@H]([C@H](OC(=O)c3ccccc3)[C@]3(O)C[C@H](OC(=O)[C@H](O)[C@@H](NC(=O)c4ccccc4)c4ccccc4)C(C)=C1C3(C)C)[C@]1(OC(C)=O)CO[C@@H]1C[C@@H]2O [PACLITAXEL]"
  Target Of Assay: "Tubulin beta-4 chain (Gallus gallus) (UniProt P09652)"
  Assay Endpoint: "inhibition"
  Numeric Result: 98
- Compound: "CC(=O)O[C@@]12CO[C@@H]1C[C@H](O)[C@@]1(C)C(=O)[C@H](O)C3=C(C)[C@@H](OC(=O)[C@H](O)[C@@H](NC(=O)OC(C)(C)C)c4ccccc4)C[C@@](O)([C@@H](OC(=O)c4ccccc4)[C@H]21)C3(C)C [DOCETAXEL ANHYDROUS]"
  Target Of Assay: "Tubulin beta-4 chain (Gallus gallus) (UniProt P09652)"
  Assay Endpoint: "inhibition"
  Numeric Result: 98
